testedTarget: Recombinant human FAP (Homo sapiens, UniProt Q12884)
Construct: purchased R&D systems
Sequence (Q12884 whole entry): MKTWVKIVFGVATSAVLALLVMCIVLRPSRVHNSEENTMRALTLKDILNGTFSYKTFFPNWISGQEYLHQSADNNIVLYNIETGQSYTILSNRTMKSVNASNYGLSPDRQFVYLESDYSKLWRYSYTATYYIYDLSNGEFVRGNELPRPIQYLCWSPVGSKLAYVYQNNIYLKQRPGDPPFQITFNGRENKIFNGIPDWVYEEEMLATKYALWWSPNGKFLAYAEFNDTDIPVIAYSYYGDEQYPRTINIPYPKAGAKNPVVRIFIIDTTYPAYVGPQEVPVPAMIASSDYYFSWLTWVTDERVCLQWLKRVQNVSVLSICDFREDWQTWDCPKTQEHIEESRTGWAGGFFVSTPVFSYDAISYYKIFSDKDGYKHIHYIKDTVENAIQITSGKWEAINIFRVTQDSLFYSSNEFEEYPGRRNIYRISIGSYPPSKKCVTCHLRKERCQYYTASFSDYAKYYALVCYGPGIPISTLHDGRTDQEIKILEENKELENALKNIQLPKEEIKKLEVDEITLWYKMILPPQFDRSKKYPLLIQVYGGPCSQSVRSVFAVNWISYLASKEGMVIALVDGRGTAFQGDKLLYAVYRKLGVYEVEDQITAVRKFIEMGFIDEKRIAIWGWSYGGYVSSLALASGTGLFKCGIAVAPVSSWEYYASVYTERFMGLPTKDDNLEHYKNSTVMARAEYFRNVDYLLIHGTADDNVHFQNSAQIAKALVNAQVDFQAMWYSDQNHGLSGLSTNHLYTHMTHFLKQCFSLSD
experimentNotes: FAP inhibition, fluorogenic substrate Z-Gly-Pro-AMC
Type: biochemical
testParameters: 25° C., Z-Gly-Pro-AMC substrate
1 if IC50 is below 10 nM. 0 if not; exact matches included in 0.

[
  {
    "compound": "N#C[C@@H]1CCCN1C(=O)CN1CC[C@H](NC(=O)c2cccc3cccnc23)C1 [Example 34]",
    "group": 0
  },
  {
    "compound": "N#C[C@@H]1CCCN1C(=O)CN1CC[C@H](Oc2ccnc3cc(Br)ccc23)C1 [Example 80]",
    "group": 0
  },
  {
    "compound": "COc1cccc2cc(N(C)[C@H]3CCN(CC(=O)N4CCC[C@H]4C#N)C3)cnc12 [Example 154]",
    "group": 1
  },
  {
    "compound": "N#C[C@@H]1CCCN1C(=O)CN1CCC(Oc2ccc3ncccc3c2)CC1 [Example 120]",
    "group": 0
  },
  {
    "compound": "N#C[C@@H]1C[C@H](F)CN1C(=O)CN1CC[C@H](Nc2cncc3ccoc23)C1 [Example 28]",
    "group": 1
  },
  {
    "compound": "N#C[C@@H]1CCCN1C(=O)CN1CC[C@@H](C(=O)Nc2ccnc3ccccc23)C1 [Example 2]",
    "group": 0
  },
  {
    "compound": "N#C[C@@H]1CC(F)(F)CN1C(=O)CN1CC[C@H](Nc2ccc3ccccc3c2)C1 [Example 15]",
    "group": 0
  },
  {
    "compound": "N#C[C@@H]1CC(F)(F)CN1C(=O)CN1CC[C@H](Nc2cccc(-c3ccccc3)c2)C1 [Example 16]",
    "group": 1
  },
  {
    "compound": "N#C[C@@H]1CCCN1C(=O)CN1CC[C@H](C(=O)Nc2cnc3ccccc3c2)C1 [Example 3]",
    "group": 0
  },
  {
    "compound": "N#C[C@@H]1CCCN1C(=O)CN1CCC(Nc2cc(F)cc3ncccc23)CC1 [Example 123]",
    "group": 1
  },
  {
    "compound": "N#C[C@@H]1CCCN1C(=O)CN1CC[C@@H](Nc2cccc3ccsc23)C1 [Example 25]",
    "group": 0
  },
  {
    "compound": "COc1cc(NC2CCN(CC(=O)N3C[C@@H](F)C[C@H]3C#N)CC2)c2cccnc2c1 [Example 133]",
    "group": 1
  }
]

###

# log10 of IC50 per record follows
testedTarget: recombinant human PREP (Homo sapiens, UniProt P48147)
Construct: purchased R&D System
Sequence (P48147 1-710): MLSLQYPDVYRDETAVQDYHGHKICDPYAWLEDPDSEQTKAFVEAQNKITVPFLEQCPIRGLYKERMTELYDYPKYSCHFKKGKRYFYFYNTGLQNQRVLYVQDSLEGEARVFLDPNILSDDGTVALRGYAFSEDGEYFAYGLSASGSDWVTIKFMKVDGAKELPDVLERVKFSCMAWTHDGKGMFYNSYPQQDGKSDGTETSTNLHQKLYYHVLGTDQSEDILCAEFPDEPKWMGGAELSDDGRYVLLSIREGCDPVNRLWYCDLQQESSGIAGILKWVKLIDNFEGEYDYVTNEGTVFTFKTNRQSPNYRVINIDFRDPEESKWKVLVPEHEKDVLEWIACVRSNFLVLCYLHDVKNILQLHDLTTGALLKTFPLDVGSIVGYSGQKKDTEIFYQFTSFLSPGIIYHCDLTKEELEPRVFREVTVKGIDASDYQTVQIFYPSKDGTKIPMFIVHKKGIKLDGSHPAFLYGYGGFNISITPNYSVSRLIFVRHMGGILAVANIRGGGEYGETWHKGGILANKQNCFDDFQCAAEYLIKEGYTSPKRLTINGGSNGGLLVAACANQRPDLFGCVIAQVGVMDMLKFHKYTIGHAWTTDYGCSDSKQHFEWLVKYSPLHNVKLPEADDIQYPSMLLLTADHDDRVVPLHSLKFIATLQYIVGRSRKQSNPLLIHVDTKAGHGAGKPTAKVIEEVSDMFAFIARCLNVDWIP
experimentNotes: PREP inhibition, fluorogenic substrate Z-Gly-Pro-AMC
Format: biochemical
testParameters: Inhibitory Activity (IC50, nM) PREP, 25° C., Z-Gly-Pro-AMC substrate
measurementType: log10 of IC50 (log10 of the value in nM)

[
  {
    "compound": "N#C[C@@H]1CCCN1C(=O)CN1CC[C@H](NC(=O)c2coc3cc(F)ccc23)C1 [Example 44]",
    "log10 of IC50": 4.08
  },
  {
    "compound": "Cc1ccc2ncccc2c1NC1CCN(CC(=O)N2CCC[C@H]2C#N)CC1 [Example 122]",
    "log10 of IC50": 4.37
  },
  {
    "compound": "N#C[C@@H]1CCCN1C(=O)CN1CC[C@H](NC(=O)c2coc3ccc(F)cc23)C1 [Example 43]",
    "log10 of IC50": 3.92
  },
  {
    "compound": "COc1cc(NC2CCN(CC(=O)N3C[C@@H](F)C[C@H]3C#N)CC2)c2cccnc2c1 [Example 133]",
    "log10 of IC50": 3.41
  },
  {
    "compound": "N#C[C@@H]1CCCN1C(=O)CN1CC[C@H](Oc2cccc3cnccc23)C1 [Example 65]",
    "log10 of IC50": 4.93
  },
  {
    "compound": "Cc1cnc2cccc(NC3CCN(CC(=O)N4C[C@@H](F)C[C@H]4C#N)CC3)c2c1 [Example 131]",
    "log10 of IC50": 3.90
  },
  {
    "compound": "N#C[C@@H]1C[C@H](F)CN1C(=O)CN1CCC(Oc2ccnc3ccc(F)cc23)CC1 [Example 126]",
    "log10 of IC50": 3.05
  },
  {
    "compound": "COc1ccc(NC2CCN(CC(=O)N3C[C@@H](F)C[C@H]3C#N)CC2)c2cccnc12 [Example 135]",
    "log10 of IC50": 3.70
  }
]

###

# log10(IC50) per record follows
testedTarget: recombinant human PREP (Homo sapiens, UniProt P48147)
Construct: purchased R&D System
experimentNotes: PREP inhibition, fluorogenic substrate Z-Gly-Pro-AMC
Type: biochemical
testParameters: Inhibitory Activity (IC50, nM) PREP, recombinant human PREP
measurementType: log10(IC50) (log10 of the value in nM)

[
  {
    "itemSmiles": "N#C[C@@H]1CCCN1C(=O)CN1CC[C@H](Nc2ccc(C(F)(F)F)c3ncccc23)C1",
    "testedTarget": "recombinant human PREP (Homo sapiens, UniProt P48147)",
    "valueMeasured": 3.98
  },
  {
    "itemSmiles": "N#C[C@@H]1C[C@H](F)CN1C(=O)CN1CCC(Oc2cccc3cnccc23)CC1",
    "testedTarget": "recombinant human PREP (Homo sapiens, UniProt P48147)",
    "valueMeasured": 3.42
  },
  {
    "itemSmiles": "N#C[C@@H]1CCCN1C(=O)CN1CC[C@@H](Nc2ccc(C(F)(F)F)c3ncccc23)C1",
    "testedTarget": "recombinant human PREP (Homo sapiens, UniProt P48147)",
    "valueMeasured": 3.96
  },
  {
    "itemSmiles": "N#C[C@@H]1CCCN1C(=O)CN1CC[C@H](Nc2cccc3ncc(Cl)cc23)C1",
    "testedTarget": "recombinant human PREP (Homo sapiens, UniProt P48147)",
    "valueMeasured": 3.93
  },
  {
    "itemSmiles": "N#C[C@@H]1CCCN1C(=O)CN1CC[C@H](Nc2ccc3ncccc3c2)C1",
    "testedTarget": "recombinant human PREP (Homo sapiens, UniProt P48147)",
    "valueMeasured": 3.94
  },
  {
    "itemSmiles": "N#Cc1cnc2cccc(N[C@H]3CCN(CC(=O)N4CCC[C@H]4C#N)C3)c2c1",
    "testedTarget": "recombinant human PREP (Homo sapiens, UniProt P48147)",
    "valueMeasured": 4.14
  },
  {
    "itemSmiles": "N#C[C@@H]1C[C@H](F)CN1C(=O)CN1CC[C@H](Nc2ccnc3c(C(F)(F)F)cccc23)C1",
    "testedTarget": "recombinant human PREP (Homo sapiens, UniProt P48147)",
    "valueMeasured": 3.57
  },
  {
    "itemSmiles": "CN(Cc1ccccc1)C(=O)c1ccc(N[C@H]2CCN(CC(=O)N3C[C@@H](F)C[C@H]3C#N)C2)c2cccnc12",
    "testedTarget": "recombinant human PREP (Homo sapiens, UniProt P48147)",
    "valueMeasured": 3.39
  },
  {
    "itemSmiles": "N#C[C@@H]1C[C@H](F)CN1C(=O)CN1CC[C@H](Nc2cc(Cl)c3ncccc3c2)C1",
    "testedTarget": "recombinant human PREP (Homo sapiens, UniProt P48147)",
    "valueMeasured": 2.80
  },
  {
    "itemSmiles": "COc1ccnc2ccc(N[C@@H]3CCN(CC(=O)N4C[C@@H](F)C[C@H]4C#N)C3)cc12",
    "testedTarget": "recombinant human PREP (Homo sapiens, UniProt P48147)",
    "valueMeasured": 3.72
  }
]

Hello, the source for this data is patent US11655235B2, in case you need it.
